System: Plasma
Test: Half life in mouse plasma at 200 uM by HPLC analysis
Assay type: ADME, cell-free
experimental_readout: t1/2
Write the numeric value and append its unit.

The molecule identified as CCCCOC(=O)[C@H](C)c1cc(O)c2c(c1)OC(C)(C)[C@@H]1CC=C(C)C[C@@H]21 registered its t1/2 at 5.9 min

For CCCCOC(=O)Cc1cc(O)c2c(c1)OC(C)(C)[C@@H]1CC=C(C)C[C@@H]21 the molecule record lists t1/2 as 0.7 min

Entry under test: CCCCOC(=O)[C@@H](C)c1cc(O)c2c(c1)OC(C)(C)[C@@H]1CC=C(C)C[C@@H]21 . Its t1/2 was 4 min

# t1/2 (molecule: CCCCOC(=O)C(C)(C)c1cc(O)c2c(c1)OC(C)(C)[C@@H]1CC=C(C)C[C@@H]21 ) is 12.4 min

Given item CCCCOC(=O)C1(c2cc(O)c3c(c2)OC(C)(C)[C@@H]2CC=C(C)C[C@@H]32)CCC1 , the value recorded as its t1/2 is 36.3 min

====

Target: UniProt P47936
Sequence (P47936 whole entry): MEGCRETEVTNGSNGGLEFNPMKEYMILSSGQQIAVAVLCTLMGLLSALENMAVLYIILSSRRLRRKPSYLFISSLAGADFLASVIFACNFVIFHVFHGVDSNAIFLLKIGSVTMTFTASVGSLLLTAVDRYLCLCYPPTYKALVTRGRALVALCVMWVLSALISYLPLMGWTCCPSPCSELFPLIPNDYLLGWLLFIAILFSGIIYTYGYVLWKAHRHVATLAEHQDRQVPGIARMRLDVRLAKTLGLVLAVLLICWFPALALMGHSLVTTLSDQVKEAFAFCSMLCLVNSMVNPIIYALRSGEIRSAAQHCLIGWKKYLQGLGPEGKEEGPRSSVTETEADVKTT
pKi: −log10 of the molar value.
Tick MET if pKi is 8 or greater. Tick NOT MET if pKi is less than 8.

*Q* API: above_or_equal(metric=pKi, cutoff=8) for item CCCCOC(=O)C1(c2cc(O)c3c(c2)OC(C)(C)[C@@H]2CC=C(C)C[C@@H]32)CCC1
*A* MET

*Q* Say whether CC1=CC[C@@H]2[C@@H](C1)c1c(O)cc(C3(C(=O)O)CCC3)cc1OC2(C)C shows pKi of 8 or more.
*A* NOT MET

*Q* Please indicate if the recorded pKi for CC1=CC[C@@H]2[C@@H](C1)c1c(O)cc(CC(=O)O)cc1OC2(C)C meets or exceeds 8.
*A* NOT MET

*Q* Decide: pKi of CCCCOC(=O)Cc1cc(O)c2c(c1)OC(C)(C)[C@@H]1CC=C(C)C[C@@H]21 >= 8?
*A* NOT MET

*Q* Is reported pKi greater than or equal to 8 here: CC1=CC[C@@H]2[C@@H](C1)c1c(O)cc(C(C)(C)C(=O)O)cc1OC2(C)C
*A* NOT MET

*Q* pKi >= 8 for CC1=CC[C@@H]2[C@@H](C1)c1c(O)cc([C@H](C)C(=O)O)cc1OC2(C)C ?
*A* NOT MET

*Q* Record CC1=CC[C@@H]2[C@@H](C1)c1c(O)cc([C@@H](C)C(=O)O)cc1OC2(C)C ; criterion: pKi no lower than 8. Met?
*A* NOT MET

*Q* Could you verify whether the entry CCCCOC(=O)C(C)(C)c1cc(O)c2c(c1)OC(C)(C)[C@@H]1CC=C(C)C[C@@H]21 shows pKi of no less than 8?
*A* MET

*Q* Does CCCCOC(=O)[C@H](C)c1cc(O)c2c(c1)OC(C)(C)[C@@H]1CC=C(C)C[C@@H]21 have a reported pKi of at least 8?
*A* MET

====

Molecular target: Cannabinoid receptor 1 (Rattus norvegicus, UniProt P20272)
Sequence (P20272 whole entry): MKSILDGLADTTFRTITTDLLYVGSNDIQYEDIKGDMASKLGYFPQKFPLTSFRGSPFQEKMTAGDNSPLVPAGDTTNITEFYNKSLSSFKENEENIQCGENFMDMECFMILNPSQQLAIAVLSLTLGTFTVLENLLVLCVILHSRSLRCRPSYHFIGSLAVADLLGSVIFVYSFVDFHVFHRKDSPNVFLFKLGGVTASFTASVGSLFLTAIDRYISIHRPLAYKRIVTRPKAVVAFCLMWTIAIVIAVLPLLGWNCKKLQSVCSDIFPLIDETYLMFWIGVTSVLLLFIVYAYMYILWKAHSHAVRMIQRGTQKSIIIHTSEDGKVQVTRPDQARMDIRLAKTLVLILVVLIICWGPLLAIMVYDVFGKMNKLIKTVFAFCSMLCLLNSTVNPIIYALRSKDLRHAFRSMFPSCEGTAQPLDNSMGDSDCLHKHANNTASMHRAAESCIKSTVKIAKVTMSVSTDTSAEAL
Experiment: Agonist activity at rat CB1 receptor expressed in HEK293 cells assessed as inhibition of forskolin-stimulated cAMP accumulation after 30 mins
experimental_readout: pEC50
A value of pEC50 is the negative decimal logarithm of a concentration given in moles per litre.

CCCCOC(=O)C1(c2cc(O)c3c(c2)OC(C)(C)[C@@H]2CC=C(C)C[C@@H]32)CCC1 has a reported pEC50 of 9.40

// sample CCCCOC(=O)C(C)(C)c1cc(O)c2c(c1)OC(C)(C)[C@@H]1CC=C(C)C[C@@H]21 , its pEC50 was 9.30

# pEC50 (compound: CCCCOC(=O)[C@@H](C)c1cc(O)c2c(c1)OC(C)(C)[C@@H]1CC=C(C)C[C@@H]21 ) is 8.38

====

Field: Ki. Provide a value for each of the molecules that follow.
Biological target: Cannabinoid receptor 1 (Rattus norvegicus)

The molecule CC1=CC[C@@H]2[C@@H](C1)c1c(O)cc(C3(C(=O)O)CCC3)cc1OC2(C)C showed Ki equal to > 10 µM

The molecule CC1=CC[C@@H]2[C@@H](C1)c1c(O)cc(C(C)(C)C(=O)O)cc1OC2(C)C showed Ki equal to > 10 µM

Lab book: Ki of CC1=CC[C@@H]2[C@@H](C1)c1c(O)cc([C@H](C)C(=O)O)cc1OC2(C)C noted as > 10 µM

Reported Ki for CC1=CC[C@@H]2[C@@H](C1)c1c(O)cc([C@@H](C)C(=O)O)cc1OC2(C)C was > 10 µM

Please fill in: Ki reported for CCCCOC(=O)[C@@H](C)c1cc(O)c2c(c1)OC(C)(C)[C@@H]1CC=C(C)C[C@@H]21 = 0.0006 µM

====

Kindly supply the reported t1/2 values for the records listed here.
Tested on: Plasma
Experiment: Half life in rat plasma at 200 uM by HPLC analysis
Type: ADME, cell-free
Kindly provide the numeric value in min only, without the unit symbol.

Field t1/2 (entry CCCCOC(=O)C1(c2cc(O)c3c(c2)OC(C)(C)[C@@H]2CC=C(C)C[C@@H]32)CCC1 ) reads 263

Recorded t1/2 (compound CCCCOC(=O)[C@H](C)c1cc(O)c2c(c1)OC(C)(C)[C@@H]1CC=C(C)C[C@@H]21 ): 10.5

Lookup result for CCCCOC(=O)[C@@H](C)c1cc(O)c2c(c1)OC(C)(C)[C@@H]1CC=C(C)C[C@@H]21 ; measured t1/2: 4.3

// sample CCCCOC(=O)C(C)(C)c1cc(O)c2c(c1)OC(C)(C)[C@@H]1CC=C(C)C[C@@H]21 , its t1/2 was 120

====

Record set of Ki for target or system Cannabinoid receptor 2 (Homo sapiens, UniProt P34972).
Just the number please, in nM, no unit attached.

Note to self: Ki recorded for CCCCOC(=O)C1(c2cc(O)c3c(c2)OC(C)(C)[C@@H]2CC=C(C)C[C@@H]32)CCC1 was 3

The compound listed as CCCCOC(=O)[C@@H](C)c1cc(O)c2c(c1)OC(C)(C)[C@@H]1CC=C(C)C[C@@H]21 shows Ki equal to 6.3

CCCCOC(=O)Cc1cc(O)c2c(c1)OC(C)(C)[C@@H]1CC=C(C)C[C@@H]21 yielded Ki of 51.5

Input CCCCOC(=O)C(C)(C)c1cc(O)c2c(c1)OC(C)(C)[C@@H]1CC=C(C)C[C@@H]21 . Output Ki: 1.7

compound CCCCOC(=O)[C@H](C)c1cc(O)c2c(c1)OC(C)(C)[C@@H]1CC=C(C)C[C@@H]21 , Ki observed: 3.7

====

Here's a batch of compounds along with measured Ki for Cannabinoid receptor 1 (Rattus norvegicus, UniProt P20272).
Supply the numeric figure in nM, leaving out any unit text.

Looking up CCCCOC(=O)Cc1cc(O)c2c(c1)OC(C)(C)[C@@H]1CC=C(C)C[C@@H]21 , I found its Ki recorded as 27.1

Ki for CCCCOC(=O)C(C)(C)c1cc(O)c2c(c1)OC(C)(C)[C@@H]1CC=C(C)C[C@@H]21 is 0.3

The recorded Ki for CCCCOC(=O)[C@H](C)c1cc(O)c2c(c1)OC(C)(C)[C@@H]1CC=C(C)C[C@@H]21 is 1.6

Data provenance is ChEMBL document CHEMBL3102697.
